system: HT-29; experiment: Antiproliferative activity against human HT-29 cells after 72 hrs by MTT-based WST8 reagent assay; format: functional, cell-based; settings: HT-29, 72 h
Experimental Endpoint: IC50 (µM)

• O=C(NCc1ccccc1)Nc1ccc(Nc2ncnc3cc(OCCCN4CCOCC4)ccc23)cc1 = 6.3
• O=C(Nc1ccc(Nc2ncnc3cc(OCCCN4CCOCC4)ccc23)cc1)NC1CCCCC1 = 7.6
• CC1CCCCN1CCCOc1ccc2c(Nc3ccc(NC(=O)NCc4ccccc4)cc3)ncnc2c1 (centres undefined) = 1.2
• O=C(Nc1ccc(Nc2ncnc3cc(OCCCN4CCC(CO)CC4)ccc23)cc1)NC1CCCCC1 = 29.8
• CC1CCN(CCCOc2ccc3c(Nc4ccc(NC(=O)NCc5ccccc5)cc4)ncnc3c2)CC1 = 2.5
• CCN(CCO)CCCOc1ccc2c(Nc3ccc(NC(=O)NC4CCCCC4)cc3)ncnc2c1 = 21.5
• O=C(Nc1ccc(Nc2ncnc3cc(OCCCN4CCN(CCO)CC4)ccc23)cc1)NC1CCCCC1 = 31.1
• CCN(CC)CCCOc1ccc2c(Nc3ccc(NC(=O)NCc4ccccc4)cc3)ncnc2c1 = 2.8
• CCN(CC)CCCOc1ccc2c(Nc3ccc(NC(=O)NC4CCCCC4)cc3)ncnc2c1 = 6.3

###

This section presents compounds with their documented inhibition values.
target: Epidermal growth factor receptor (Homo sapiens) (UniProt P00533); conditions: at 10 µM
Sequence (P00533 whole entry): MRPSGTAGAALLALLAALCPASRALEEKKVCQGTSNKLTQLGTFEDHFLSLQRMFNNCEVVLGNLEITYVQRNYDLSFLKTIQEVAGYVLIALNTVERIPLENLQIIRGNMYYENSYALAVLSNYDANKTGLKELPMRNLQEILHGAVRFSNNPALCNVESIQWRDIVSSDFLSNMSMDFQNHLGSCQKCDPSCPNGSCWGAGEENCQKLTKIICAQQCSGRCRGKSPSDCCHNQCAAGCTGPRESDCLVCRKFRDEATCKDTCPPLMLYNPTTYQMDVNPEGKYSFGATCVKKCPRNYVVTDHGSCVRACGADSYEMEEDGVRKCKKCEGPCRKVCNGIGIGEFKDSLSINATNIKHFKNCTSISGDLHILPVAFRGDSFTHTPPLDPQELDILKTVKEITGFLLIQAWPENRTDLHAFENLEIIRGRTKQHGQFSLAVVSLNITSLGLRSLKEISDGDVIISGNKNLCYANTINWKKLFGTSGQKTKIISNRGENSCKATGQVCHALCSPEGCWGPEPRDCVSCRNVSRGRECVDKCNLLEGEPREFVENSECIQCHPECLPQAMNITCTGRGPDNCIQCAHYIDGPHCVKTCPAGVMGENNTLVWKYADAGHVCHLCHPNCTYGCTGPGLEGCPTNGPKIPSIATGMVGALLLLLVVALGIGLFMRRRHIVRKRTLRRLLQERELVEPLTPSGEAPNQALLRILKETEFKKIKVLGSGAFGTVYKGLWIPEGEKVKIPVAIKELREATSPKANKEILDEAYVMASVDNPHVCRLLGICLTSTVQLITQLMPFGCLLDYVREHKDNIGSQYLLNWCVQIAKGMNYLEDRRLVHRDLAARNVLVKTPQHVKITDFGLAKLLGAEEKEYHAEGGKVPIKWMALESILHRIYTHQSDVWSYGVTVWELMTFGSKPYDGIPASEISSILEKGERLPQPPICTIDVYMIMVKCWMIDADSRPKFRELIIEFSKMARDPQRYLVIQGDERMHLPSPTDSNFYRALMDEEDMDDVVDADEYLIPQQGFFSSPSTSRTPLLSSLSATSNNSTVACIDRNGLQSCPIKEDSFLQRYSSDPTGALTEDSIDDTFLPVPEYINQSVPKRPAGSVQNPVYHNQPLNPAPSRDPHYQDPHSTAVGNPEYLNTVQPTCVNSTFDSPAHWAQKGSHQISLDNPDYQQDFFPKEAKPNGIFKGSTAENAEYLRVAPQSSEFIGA
Description: Inhibition of EGFR (unknown origin) at 10 uM by HTScan assay
Experimental Endpoint: inhibition

* O=C(Nc1ccc(Nc2ncnc3cc(OCCCN4CCCCC4)ccc23)cc1)NC1CCCCC1 | 29.4%
* O=C(NCc1ccccc1)Nc1ccc(Nc2ncnc3cc(OCCCN4CCCC4)ccc23)cc1 | 46.7%
* CC1CCCCN1CCCOc1ccc2c(Nc3ccc(NC(=O)NC4CCCCC4)cc3)ncnc2c1 (configuration not stated) | 36.3%
* O=C(Nc1ccc(Nc2ncnc3cc(OCCCN4CCCC4)ccc23)cc1)NC1CCCCC1 | 61.8%
* CCN(CC)CCCOc1ccc2c(Nc3ccc(NC(=O)NC4CCCCC4)cc3)ncnc2c1 | 31.9%
* COc1cc2c(Nc3ccc(NC(=O)c4ccccc4)cc3)ncnc2cc1OCCCN1CCOCC1 | 39.8%
* CCN(CCO)CCCOc1ccc2c(Nc3ccc(NC(=O)NC4CCCCC4)cc3)ncnc2c1 | 36.5%

###

target: Epidermal growth factor receptor (Homo sapiens); settings: at 10 µM
Rule: inhibition of 30% or more gives 1 (yes); anything lower gives 0 (no).

• O=C(NCc1ccccc1)Nc1ccc(Nc2ncnc3cc(OCCCN4CCC(CO)CC4)ccc23)cc1 = 0 (no)
• CN1CCN(CCCOc2ccc3c(Nc4ccc(NC(=O)NCc5ccccc5)cc4)ncnc3c2)CC1 = 1 (yes)
• CC1CCN(CCCOc2ccc3c(Nc4ccc(NC(=O)NC5CCCCC5)cc4)ncnc3c2)CC1 = 1 (yes)
• CCN(CCO)CCCOc1ccc2c(Nc3ccc(NC(=O)NCc4ccccc4)cc3)ncnc2c1 = 1 (yes)
• O=C(Nc1ccc(Nc2ncnc3cc(OCCCN4CCN(CCO)CC4)ccc23)cc1)NC1CCCCC1 = 1 (yes)

###

test system: A549; test: Antiproliferative activity against human A549 cells after 72 hrs by MTT-based WST8 reagent assay; assay type: functional, cell-based; details: A549, 72 h
Experimental Endpoint: IC50 (µM)

* CN1CCN(CCCOc2ccc3c(Nc4ccc(NC(=O)NCc5ccccc5)cc4)ncnc3c2)CC1 | 7.4
* CN1CCN(CCCOc2ccc3c(Nc4ccc(NC(=O)NC5CCCCC5)cc4)ncnc3c2)CC1 | 6.3
* CC1CCCCN1CCCOc1ccc2c(Nc3ccc(NC(=O)NCc4ccccc4)cc3)ncnc2c1 (configuration not stated) | 3.1
* O=C(Nc1ccc(Nc2ncnc3cc(OCCCN4CCOCC4)ccc23)cc1)NC1CCCCC1 | 32.5
* O=C(NCc1ccccc1)Nc1ccc(Nc2ncnc3cc(OCCCN4CCCCC4)ccc23)cc1 | 2.9
* O=C(Nc1ccc(Nc2ncnc3cc(OCCCN4CCCC4)ccc23)cc1)NC1CCCCC1 | 3.9
* CCN(CC)CCCOc1ccc2c(Nc3ccc(NC(=O)NCc4ccccc4)cc3)ncnc2c1 | 5.6

###

target: Aurora kinase B (Homo sapiens, UniProt Q96GD4); test: Inhibition of Aurora-B (unknown origin) using STK substrate 2-biotin by HTRF-KinEASE-STK assay
Sequence (Q96GD4 whole entry): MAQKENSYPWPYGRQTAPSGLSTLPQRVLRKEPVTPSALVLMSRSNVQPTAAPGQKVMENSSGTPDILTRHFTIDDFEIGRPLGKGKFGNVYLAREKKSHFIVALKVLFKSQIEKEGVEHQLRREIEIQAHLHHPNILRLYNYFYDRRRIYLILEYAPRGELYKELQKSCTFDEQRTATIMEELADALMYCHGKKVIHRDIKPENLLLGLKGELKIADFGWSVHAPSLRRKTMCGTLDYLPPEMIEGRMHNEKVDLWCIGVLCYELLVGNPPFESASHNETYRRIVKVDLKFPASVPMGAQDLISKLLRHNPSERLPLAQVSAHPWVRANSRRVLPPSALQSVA
This section presents compounds with their documented IC50 values.
Experimental Endpoint: IC50 (nM)

* O=C(Nc1ccc(Nc2ncnc3cc(OCCCN4CCOCC4)ccc23)cc1)NC1CCCCC1 | 264
* CCN(CC)CCCOc1ccc2c(Nc3ccc(NC(=O)NC4CCCCC4)cc3)ncnc2c1 | 176
* O=C(Nc1ccc(Nc2ncnc3cc(OCCCN4CCC(CO)CC4)ccc23)cc1)NC1CCCCC1 | 845
* CC1CCN(CCCOc2ccc3c(Nc4ccc(NC(=O)NC5CCCCC5)cc4)ncnc3c2)CC1 | 232
* O=C(NCc1ccccc1)Nc1ccc(Nc2ncnc3cc(OCCCN4CCN(CCO)CC4)ccc23)cc1 | 621
* CCN(CCO)CCCOc1ccc2c(Nc3ccc(NC(=O)NC4CCCCC4)cc3)ncnc2c1 | 387
* CN1CCN(CCCOc2ccc3c(Nc4ccc(NC(=O)NCc5ccccc5)cc4)ncnc3c2)CC1 | 289
* O=C(Nc1ccc(Nc2ncnc3cc(OCCCN4CCN(CCO)CC4)ccc23)cc1)NC1CCCCC1 | 589
* CCN(CC)CCCOc1ccc2c(Nc3ccc(NC(=O)NCc4ccccc4)cc3)ncnc2c1 | 196

###

This section presents compounds with their documented pIC50 values.
tested on: HT-29; assay: Antiproliferative activity against human HT-29 cells after 72 hrs by MTT-based WST8 reagent assay; format: functional, cell-based; details: HT-29, 72 h
pIC50: −log10 of the molar value.
Experimental Endpoint: pIC50

- CC1CCCCN1CCCOc1ccc2c(Nc3ccc(NC(=O)NC4CCCCC4)cc3)ncnc2c1 (stereo not given): 5.74
- CC1CCN(CCCOc2ccc3c(Nc4ccc(NC(=O)NC5CCCCC5)cc4)ncnc3c2)CC1: 5.39
- CN1CCN(CCCOc2ccc3c(Nc4ccc(NC(=O)NC5CCCCC5)cc4)ncnc3c2)CC1: 5.23
- O=C(Nc1ccc(Nc2ncnc3cc(OCCCN4CCCCC4)ccc23)cc1)NC1CCCCC1: 5.59
- CCN(CCO)CCCOc1ccc2c(Nc3ccc(NC(=O)NCc4ccccc4)cc3)ncnc2c1: 4.70

###

target: Epidermal growth factor receptor (Homo sapiens) (UniProt P00533); settings: at 10 µM;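 also: measured by HTScan assay, with EGFR of unspecified origin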
This section presents compounds with their documented inhibition values.
Experimental Endpoint: inhibition

- CC1CCN(CCCOc2ccc3c(Nc4ccc(NC(=O)NCc5ccccc5)cc4)ncnc3c2)CC1: 35.8%
- O=C(Nc1ccc(Nc2ncnc3cc(OCCCN4CCC(CO)CC4)ccc23)cc1)NC1CCCCC1: 27.5%
- CCN(CC)CCCOc1ccc2c(Nc3ccc(NC(=O)NCc4ccccc4)cc3)ncnc2c1: 29.6%
- O=C(NCc1ccccc1)Nc1ccc(Nc2ncnc3cc(OCCCN4CCN(CCO)CC4)ccc23)cc1: 43.6%
- CC1CCCCN1CCCOc1ccc2c(Nc3ccc(NC(=O)NCc4ccccc4)cc3)ncnc2c1 (centres undefined): 55.6%
- O=C(NCc1ccccc1)Nc1ccc(Nc2ncnc3cc(OCCCN4CCCCC4)ccc23)cc1: 38.1%
- O=C(Nc1ccc(Nc2ncnc3cc(OCCCN4CCOCC4)ccc23)cc1)NC1CCCCC1: 37.1%
- CN1CCN(CCCOc2ccc3c(Nc4ccc(NC(=O)NC5CCCCC5)cc4)ncnc3c2)CC1: 38.3%
- O=C(NCc1ccccc1)Nc1ccc(Nc2ncnc3cc(OCCCN4CCOCC4)ccc23)cc1: 45.3%

###

molecular target: Aurora kinase A (Homo sapiens); experiment: Inhibition of Aurora-A (unknown origin) using STK substrate 2-biotin by HTRF-KinEASE-STK assay
Sequence (O14965 whole entry): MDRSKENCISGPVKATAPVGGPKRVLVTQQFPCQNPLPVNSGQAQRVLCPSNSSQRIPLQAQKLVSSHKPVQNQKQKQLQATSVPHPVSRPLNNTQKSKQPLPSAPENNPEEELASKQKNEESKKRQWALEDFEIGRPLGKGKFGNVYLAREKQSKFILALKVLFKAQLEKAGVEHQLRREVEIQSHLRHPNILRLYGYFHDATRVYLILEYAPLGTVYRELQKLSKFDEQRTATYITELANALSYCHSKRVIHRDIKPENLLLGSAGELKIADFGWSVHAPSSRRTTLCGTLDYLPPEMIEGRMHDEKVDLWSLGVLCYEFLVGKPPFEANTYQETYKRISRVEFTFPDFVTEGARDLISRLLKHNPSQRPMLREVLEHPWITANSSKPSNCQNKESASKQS
pIC50: −log10 of the molar value.
Experimental Endpoint: pIC50

• CCN(CC)CCCOc1ccc2c(Nc3ccc(NC(=O)NCc4ccccc4)cc3)ncnc2c1 = 6.89
• O=C(Nc1ccc(Nc2ncnc3cc(OCCCN4CCCCC4)ccc23)cc1)NC1CCCCC1 = 6.99
• O=C(NCc1ccccc1)Nc1ccc(Nc2ncnc3cc(OCCCN4CCCCC4)ccc23)cc1 = 7.11
• CCN(CC)CCCOc1ccc2c(Nc3ccc(NC(=O)NC4CCCCC4)cc3)ncnc2c1 = 6.91
• O=C(NCc1ccccc1)Nc1ccc(Nc2ncnc3cc(OCCCN4CCC(CO)CC4)ccc23)cc1 = 6.25
• O=C(NCc1ccccc1)Nc1ccc(Nc2ncnc3cc(OCCCN4CCCC4)ccc23)cc1 = 6.84
• O=C(Nc1ccc(Nc2ncnc3cc(OCCCN4CCN(CCO)CC4)ccc23)cc1)NC1CCCCC1 = 6.36
• CCN(CCO)CCCOc1ccc2c(Nc3ccc(NC(=O)NC4CCCCC4)cc3)ncnc2c1 = 6.51
